Reported values of Ki for individual entries
Molecular target: T1, human MC4 receptor (human, UniProt P32245 1-332)
T1 construct: whole, on cells; Assayed as membranes of BHK cells stably expressing the receptor; also called melanocortin receptor subtype 4; melanocortin receptor 4
T1 sequence (P32245 whole entry): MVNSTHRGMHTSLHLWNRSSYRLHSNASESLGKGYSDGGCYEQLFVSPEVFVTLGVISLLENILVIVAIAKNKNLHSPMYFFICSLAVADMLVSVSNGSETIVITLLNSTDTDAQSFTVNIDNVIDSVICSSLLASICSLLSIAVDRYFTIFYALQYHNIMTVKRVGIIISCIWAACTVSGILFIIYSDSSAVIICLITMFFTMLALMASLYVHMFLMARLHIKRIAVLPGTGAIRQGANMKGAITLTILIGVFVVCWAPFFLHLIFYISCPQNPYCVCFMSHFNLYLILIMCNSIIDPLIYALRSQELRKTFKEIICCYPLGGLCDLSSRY
Assay: 125I-NDP-α-MSH displacement, BHK-human MC4 membranes (Assay V);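 further: Filter-retained radioactivity read by gamma counting, with affinity obtained through non-linear regression fitting of the binding curves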
Positions of bridges follow the written chain, without caps; N, C: chain ends. Non-standard residues stand in square brackets, D forms with d. Groups on a side chain read outwards from the residue. Primed or numbered codes have the meaning given here. *: point of attachment. bis(carboxymethyl) = Lys(biscarboxymethyl) = N6-bis(carboxymethyl)-L-lysine; Palmitoyl(16-(5-tetrazolyl)) = O=C(CCCCCCCCCCCCCCCc1nnn[nH]1)*; biscarboxymethyl(3) = Nepsilon-bis(carboxymethyl) on Lys; C17 diacid = O=C(O)CCCCCCCCCCCCCCCC(=O)*; C16 diacid = O=C(O)CCCCCCCCCCCCCCC(=O)*; Hyp = O=C(O)[C@@H]1C[C@@H](O)CN1; Orn = NCCC[C@H](N)C(=O)O; Dap = NC[C@H](N)C(=O)O; AEEA = NCCOCCOCC(=O)O
experimentalReadout: Ki (nM)

INSERT INTO measurements (binder, endpointunit, testvalue) VALUES
  ('Ac-EH[dF]RW[Dap][Hyp][Hyp]RDK(biscarboxymethyl(3))K([AEEA-Palmitoyl(16-(5-tetrazolyl))])-NH2 (lactam 1-6)', 'nM', 17),
  ('Ac-CEH[dF]RWGCPPKEEK([AEEA-C16 diacid])-NH2 (disulfide 1-8; SMILES CC(=O)N[C@H]1CSSC[C@@H](C(=O)N2CCC[C@H]2C(=O)N2CCC[C@H]2C(=O)N[C@@H](CCCCN)C(=O)N[C@@H](CCC(=O)O)C(=O)N[C@@H](CCC(=O)O)C(=O)N[C@@H](CCCCNC(=O)COCCOCCNC(=O)CCCCCCCCCCCCCCC(=O)O)C(N)=O)NC(=O)CNC(=O)[C@H](Cc2c[nH]c3ccccc23)NC(=O)[C@H](CCCNC(=N)N)NC(=O)[C@@H](Cc2ccccc2)NC(=O)[C@H](Cc2c[nH]cn2)NC(=O)[C@H](CCC(=O)O)NC1=O)', 'nM', 6.2),
  ('Ac-[Orn]H[dF]RWEPSSSK(bis(carboxymethyl))SSK([AEEA-C17 diacid])-NH2 (lactam 1-6)', 'nM', 6.35);
